# reported GI50; entries follow
Tested on: COLO 205
Assay: NCI tumour cell line growth inhibition, 48 h
Activity calls are given as the source filed them. Rule as the data show it: active = GI50 up to about 1.1 µM and inactive = higher.

Example molecules with recorded GI50:
molecule	target	GI50
O=S(=O)(O)Nc1ccc(-c2nc3ccccc3s2)cc1Cl	COLO 205	> 100 µM (inactive)
CC(C)CC(=O)NC(Nc1ccc(S(=O)(=O)Nc2ncccn2)cc1)(C(F)(F)F)C(F)(F)F	COLO 205	> 100 µM (inactive)
FC(F)(F)c1ccc2c(c1)N(CCCNCCN1CCOCC1)c1ccccc1S2	COLO 205	2.37 µM (inactive)

Q: // map CN(NC(=O)/C(=C/c1ccc(Cl)cc1)NC(=O)c1ccccc1)c1cn[nH]c(=O)c1Cl to recorded GI50 (system: COLO 205)
Result: > 100 µM (inactive)

Q: And CC(C)c1cc(C(C)C)c(B(c2ccccc2)c2ccccc2)c(C(C)C)c1B(c1ccccc1)c1ccccc1 ?
Result: > 100 µM (inactive)

Q: And CSc1nc2cc(S(=O)(=O)N3CCCCC3)ccc2s1 ?
Result: > 100 µM (inactive)

Q: And CC(C)OP(=O)(OC(C)C)C(C(C)C)N(C)/C(N)=N/C#N (stereo unspecified) ?
Result: > 100 µM (inactive)

Q: And CC(=O)c1cc2c3c(c1)c1cc4c(cc1c(=O)n3CC2)OCO4 ?
Result: 29.6 µM (inactive)

Q: And C[C@]12CCC3c4ccc(O)cc4CC[C@H]3C1CC(=O)N(CCN1CCCC1)C2=O (stereo partly specified) ?
Result: > 10 µM (inactive)

Q: And CCOC(=O)C1Nc2ccc([N+](=O)[O-])cc2[C@H]2OCC[C@@H]12 (stereo partly specified) ?
Result: > 100 µM (inactive)

Q: And COCN1COCN(C)C1=O ?
Result: > 100 µM (inactive)

Q: And CCOC(=O)Nc1ccc(S(=O)(=O)OC)cc1.CCOC(=O)Nc1ccc(S(=O)(=O)OC)cc1.Nc1ncnc2c1ncn2C1OC(CO)C(O)C1O (stereo unspecified) ?
Result: 49 µM (inactive)

Q: And NS(=O)(=O)c1ccc(NC(=O)c2cccc3c(=O)c4ccccc4[nH]c23)cc1 ?
Result: 37.2 µM (inactive)

Q: And C=C1c2nc3ccccc3n2C=C(c2ccc(OC)cc2)N1c1ccc(OCCN2CCOCC2)cc1 ?
Result: 10.8 µM (inactive)

Q: And CC1CC(C(=O)OC2OC(COC3OC(CO)C(OC4OC(C)C(O)C(O)C4O)C(O)C3O)C(O)C(O)C2O)C2CCC3(C)C(=CCC4(C)C3CCC3C(C)(CO)C(O)C(O)CC34C)C2C1C (stereo unspecified) ?
Result: 17.3 µM (inactive)

Q: And O=C1C2CCN(CC2)C1(CO)CO ?
Result: 18.7 µM (inactive)

Q: And CC(=O)CCC1(c2ccccc2)OC(=O)C(C#N)=C1c1ccccc1 (stereo unspecified) ?
Result: > 100 µM (inactive)

Q: And O=C1/C(=c2\c3ccccc3n3c(=O)c4ccccc4nc23)Nc2ccccc21 ?
Result: 58.5 µM (inactive)

Q: And COc1ccc2c(c1)CCCN2CCCCCCCCCCN(CCC(C)C)CCC(C)C ?
Result: 12.1 µM (inactive)

Q: And Brc1nc2c3ccccc3ncn2c1Br ?
Result: 16.3 µM (inactive)

Q: And C[C@@H](NC1CCC[C@@H]1O)c1ccccc1 (stereo partly specified) ?
Result: > 100 µM (inactive)
